SYSTEM NAME: Human VPS34 (Homo sapiens (Human))
Sequence (Q8NEB9 whole entry): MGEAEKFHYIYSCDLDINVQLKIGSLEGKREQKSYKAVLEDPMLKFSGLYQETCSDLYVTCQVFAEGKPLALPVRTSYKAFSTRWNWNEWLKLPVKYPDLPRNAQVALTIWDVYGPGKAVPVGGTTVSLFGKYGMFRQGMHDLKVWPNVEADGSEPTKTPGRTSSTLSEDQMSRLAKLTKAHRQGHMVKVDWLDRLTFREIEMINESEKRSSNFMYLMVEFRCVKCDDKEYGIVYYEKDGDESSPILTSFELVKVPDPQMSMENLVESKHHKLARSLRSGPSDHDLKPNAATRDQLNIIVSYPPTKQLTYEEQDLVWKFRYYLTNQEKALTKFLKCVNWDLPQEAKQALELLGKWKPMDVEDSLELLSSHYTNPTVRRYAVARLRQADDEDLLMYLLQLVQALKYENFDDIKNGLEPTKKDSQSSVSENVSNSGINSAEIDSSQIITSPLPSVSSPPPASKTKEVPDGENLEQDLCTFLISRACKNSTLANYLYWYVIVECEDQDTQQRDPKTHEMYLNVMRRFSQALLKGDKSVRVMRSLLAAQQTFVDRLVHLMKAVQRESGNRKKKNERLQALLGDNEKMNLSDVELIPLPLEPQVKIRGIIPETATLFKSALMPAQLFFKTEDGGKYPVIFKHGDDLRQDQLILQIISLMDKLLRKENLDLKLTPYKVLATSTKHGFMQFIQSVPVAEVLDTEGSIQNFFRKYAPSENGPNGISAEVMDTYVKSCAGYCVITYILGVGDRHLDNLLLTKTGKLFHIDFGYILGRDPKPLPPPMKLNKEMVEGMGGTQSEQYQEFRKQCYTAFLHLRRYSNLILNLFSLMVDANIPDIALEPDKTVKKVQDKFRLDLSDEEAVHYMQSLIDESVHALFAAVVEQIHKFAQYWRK
TEST PROTOCOL: Human VPS34 enzyme assay (Adapta TR-FRET)
Type: biochemical
RUN PARAMETERS: compound concentration 1.11 μM; read-out: Percent Inhibition
compounds and their reported inhibition at 1.11 µM

Example cases with answers are listed next.
CC(=O)Nc1cc(-c2cnc(C)c(N3CC=CS3(=O)=O)c2)ccn1 = > 99%
CC(=O)Nc1cc(-c2cnc(C)c(NS(=O)(=O)c3cccc(F)c3)c2)ccn1 = > 99%
CC(=O)Nc1cc(-c2cnc(Cl)c(NS(=O)(=O)N3CC4CCC3C4)c2C)ccn1 (stereo not shown) = 93%

Attention now turns to another entry.
Entry under test: Cc1ccc(Nc2cc(-c3cnc(C)c(NS(=O)(=O)c4ccc(F)cc4F)c3)ccn2)nn1 . Its inhibition at 1.11 µM was > 99%

* * *

SYSTEM NAME: Human VPS34 (Homo sapiens (Human))
TEST PROTOCOL: Human VPS34 enzyme assay (Adapta TR-FRET)
Type: biochemical
RUN PARAMETERS: compound concentration 1.11 μM; read-out: Percent Inhibition
MEASUREMENT LABEL: inhibition at 1.11 µM

Known results for compounds:
CC(=O)Nc1cc(-c2cncc(NC(=O)Cc3ccccc3)c2)ccn1 = 64%
CC(=O)Nc1cc(-c2cnc(C)c(NS(=O)(=O)c3ccc(C)cc3F)c2)ccn1 = > 99%
Cc1ccc(Oc2cc(-c3ccnc(Nc4ccnc(C)n4)c3)cnc2C)nc1 = 98%
Cc1nccc(Nc2cc(-c3cnc(C)c(NS(=O)(=O)N(C)C)c3)ccn2)n1 = > 99%

Here's the next entry for you.
For CNc1c(Cl)ncc(-c2ccnc(Nc3ccnc(C)n3)c2)c1C the compound record lists inhibition at 1.11 µM as 94%

* * *

SYSTEM NAME: Human VPS34 (Homo sapiens (Human))
TEST PROTOCOL: Human VPS34 enzyme assay (Adapta TR-FRET)
Format: biochemical
RUN PARAMETERS: compound concentration 1.11 μM; read-out: Percent Inhibition
Recorded inhibition at 1.11 µM by entry

Reported inhibition at 1.11 µM for CC(=O)Nc1cc(-c2cnc(C)c(NS(=O)(=O)c3ccc(Cl)cc3Cl)c2)ccn1 [Compound I-30] was > 99%

So, CC(=O)Nc1cc(-c2cnc(C)c(NS(=O)(=O)c3ccc(C(F)(F)F)cc3Cl)c2)ccn1 [Compound I-196] ? Its inhibition at 1.11 µM was > 99%

// field: inhibition at 1.11 µM; key: CC(=O)Nc1cc(-c2cnc(N)c(S(=O)(=O)Cc3ccccc3)c2)ccn1 [Compound I-6] ; value = > 99%

* * *

SYSTEM NAME: UniProtKB Q8NEB9
TEST PROTOCOL: Human VPS34 enzyme assay (Adapta TR-FRET)
Type: biochemical
RUN PARAMETERS: compound concentration 1.11 μM; read-out: Percent Inhibition
MEASUREMENT LABEL: inhibition at 1.11 µM

These solved cases illustrate the format of a correct answer.
CC(=O)Nc1cc(-c2cncc(N3CCCCS3(=O)=O)c2)ccn1 = 95%
CC(=O)Nc1cc(-c2cnc(C)c(N3CCN(C)S3(=O)=O)c2)ccn1 = 96%
Cc1ncc(-c2ccnc(NC(=O)C3CC3(F)F)c2)cc1NS(=O)(=O)c1ccc(F)cc1F (stereo not drawn) [Compound I-267a] = 97%
Cc1nccc(Nc2cc(-c3cnc(C)c(OC(C)C)c3)ccn2)n1 = > 99%
CC(=O)Nc1cc(-c2cnc(N)c(S(=O)(=O)Cc3ccccc3F)c2)ccn1 = > 99%

The value of inhibition at 1.11 µM recorded for CC(=O)Nc1cc(-c2cnc(C)c(N(C)S(C)(=O)=O)c2)ccn1 when tested on UniProtKB Q8NEB9 reads > 99%

CC(=O)Nc1cc(-c2cnc(Cl)c(NS(=O)(=O)c3ccc(C4CC4)cc3F)c2C)ccn1 tested on UniProtKB Q8NEB9 gave inhibition at 1.11 µM: 92%

Response field inhibition at 1.11 µM (UniProtKB Q8NEB9) for item CC(=O)Nc1cc(-c2cncc(N3CCCS3(=O)=O)c2)ccn1 : > 99%

Measured values drawn from patent US9802960B2 for this set.
